B1: Pistol ribozyme (parent)
chain: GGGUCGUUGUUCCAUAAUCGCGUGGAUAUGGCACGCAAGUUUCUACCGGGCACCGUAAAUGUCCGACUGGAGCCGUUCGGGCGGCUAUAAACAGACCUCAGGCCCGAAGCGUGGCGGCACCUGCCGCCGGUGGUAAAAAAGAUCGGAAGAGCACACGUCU

Variants of: B1
Assay: aptazyme ON/OFF ratio, guanine; higher = stronger switching; co-transcriptional cleavage with and without guanine
Measured aptazyme ON/OFF ratio, listed per entry for reference.
MEASUREMENT KIND: aptazyme ON/OFF ratio

[
  {
    "MUTANT ID": "U7A U8A G9A U10C U11C C13U",
    "REPORTED VALUE": 1.06
  },
  {
    "MUTANT ID": "U7A U8A G9A U11G C12A C13A",
    "REPORTED VALUE": 1.08
  },
  {
    "MUTANT ID": "U7C U8G G9C U10G U11A C12U C13U",
    "REPORTED VALUE": 1.27
  },
  {
    "MUTANT ID": "U7G U8G U10C U11A C12U",
    "REPORTED VALUE": 1.36
  },
  {
    "MUTANT ID": "U7C U8A G9A U11A C12A C13U",
    "REPORTED VALUE": 1.08
  },
  {
    "MUTANT ID": "U7G U8C G9A U10G U11G C13G",
    "REPORTED VALUE": 1.28
  },
  {
    "MUTANT ID": "U7C U8G G9U U10G U11A C12A C13U",
    "REPORTED VALUE": 1.26
  },
  {
    "MUTANT ID": "U8G U10G U11G C12A",
    "REPORTED VALUE": 1.09
  },
  {
    "MUTANT ID": "U7C G9C U10C U11A",
    "REPORTED VALUE": 0.975
  },
  {
    "MUTANT ID": "U7C U8A G9U C13U",
    "REPORTED VALUE": 1.28
  },
  {
    "MUTANT ID": "U7C U8A U11A C12A C13G",
    "REPORTED VALUE": 1.08
  },
  {
    "MUTANT ID": "U7C U8A G9U U10A U11G C13A",
    "REPORTED VALUE": 1.16
  },
  {
    "MUTANT ID": "U7C G9A U11A C13G",
    "REPORTED VALUE": 1.09
  },
  {
    "MUTANT ID": "U7G G9A U10G U11G C13U",
    "REPORTED VALUE": 1.14
  },
  {
    "MUTANT ID": "U8G U10G U11C C12U C13U",
    "REPORTED VALUE": 1.04
  },
  {
    "MUTANT ID": "U7C U8A G9U U10A U11A C12A C13G",
    "REPORTED VALUE": 1.18
  },
  {
    "MUTANT ID": "U7G G9A U10C C12A C13A",
    "REPORTED VALUE": 1.14
  },
  {
    "MUTANT ID": "G9U U10G U11A C13U",
    "REPORTED VALUE": 1.08
  },
  {
    "MUTANT ID": "U7A U8C G9C U10A U11A C13A",
    "REPORTED VALUE": 1.07
  },
  {
    "MUTANT ID": "U7G U8A G9C U10G U11G C12U C13G",
    "REPORTED VALUE": 1.03
  },
  {
    "MUTANT ID": "U7G G9A U11G C12A",
    "REPORTED VALUE": 1.17
  },
  {
    "MUTANT ID": "U7A U11A C12A C13U",
    "REPORTED VALUE": 1.41
  },
  {
    "MUTANT ID": "U7G U8A G9A U11A C12A C13A",
    "REPORTED VALUE": 1.16
  },
  {
    "MUTANT ID": "U8G G9U U10G U11C C12G C13G",
    "REPORTED VALUE": 1.03
  },
  {
    "MUTANT ID": "U8C G9C U10C C13A",
    "REPORTED VALUE": 1.01
  }
]

FYI, the data here is from the RNAGym collection of RNA variant scans (doi:10.1021/acssynbio.7b00057).
